biological target: Adenosine receptor A2a (Homo sapiens, UniProt P29274); note: assay procedure not described here
Sequence (P29274 whole entry): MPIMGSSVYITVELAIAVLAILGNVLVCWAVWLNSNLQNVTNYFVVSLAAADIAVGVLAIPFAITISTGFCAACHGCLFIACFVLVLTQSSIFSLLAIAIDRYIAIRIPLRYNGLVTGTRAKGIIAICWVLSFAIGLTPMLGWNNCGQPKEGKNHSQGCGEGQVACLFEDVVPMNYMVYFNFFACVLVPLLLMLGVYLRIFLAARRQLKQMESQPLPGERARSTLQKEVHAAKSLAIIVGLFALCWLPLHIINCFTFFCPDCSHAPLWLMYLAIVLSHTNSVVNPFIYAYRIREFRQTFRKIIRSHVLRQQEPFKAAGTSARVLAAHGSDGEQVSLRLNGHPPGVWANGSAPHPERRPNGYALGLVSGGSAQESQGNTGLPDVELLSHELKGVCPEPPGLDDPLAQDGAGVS
Recorded AC50, one value per entry.
PARAMETER: AC50

| MOLECULE | MEASURED_VALUE |
| --- | --- |
| O=C(NCCNCC(O)COc1ccc(O)cc1)N1CCOCC1 (stereo not drawn) [XAMOTEROL] | > 30 µM |
| C[C@H]1COc2c(C3(N)CC3)c(F)cc3c(=O)c(C(=O)O)cn1c23 [PAZUFLOXACIN] | > 10 µM |
| O=C(OCC(O)CO)c1ccccc1Nc1ccnc2cc(Cl)ccc12 (stereo not drawn) [GLAFENINE] | 23 µM |
| COc1ccc(CCNCC(O)COc2cccc(C)c2)cc1OC (stereo not drawn) [BEVANTOLOL] | > 10 µM |
| CC[C@H]1OC(=O)[C@H](C)[C@@H](O[C@H]2C[C@@](C)(OC)[C@@H](O)[C@H](C)O2)[C@H](C)[C@@H](O[C@@H]2O[C@H](C)C[C@H](N(C)C)[C@H]2O)[C@](C)(O)C[C@@H](C)CN(C)[C@H](C)[C@@H](O)[C@]1(C)O [AZITHROMYCIN] | > 30 µM |
| C=CCC1(C(C)CC)C(=O)NC(=O)NC1=O (stereo not drawn) [TALBUTAL] | > 10 µM |
| CCCC(C)C1(CC)C(=O)NC(=O)NC1=O (stereo not drawn) [PENTOBARBITAL] | > 10 µM |
| C#C[C@]1(O)CC[C@H]2[C@@H]3CCc4cc(OC5CCCC5)ccc4[C@H]3CC[C@@]21C [QUINESTROL] | > 10 µM |
